Target: Pim-2 (Homo sapiens (Human), UniProt Q9P1W9)
Sequence (Q9P1W9 whole entry): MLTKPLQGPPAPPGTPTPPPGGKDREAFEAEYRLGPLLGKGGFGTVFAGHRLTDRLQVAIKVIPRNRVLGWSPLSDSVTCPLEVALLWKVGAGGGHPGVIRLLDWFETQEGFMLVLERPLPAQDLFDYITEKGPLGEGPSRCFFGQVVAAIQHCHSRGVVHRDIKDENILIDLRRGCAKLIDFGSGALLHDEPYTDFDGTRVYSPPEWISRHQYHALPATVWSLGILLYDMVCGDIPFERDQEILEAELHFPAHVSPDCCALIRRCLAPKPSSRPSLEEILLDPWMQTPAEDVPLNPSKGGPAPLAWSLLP
Assay: Pim enzyme assay (HTRF, phosphorylation of biotinylated-BAD (S112) peptide), Pim-2
Assay type: biochemical
Settings: full length recombinant Pim-2, biotinylated-BAD (S112) peptide, HTRF; read-out: Pim2_IC50
Description: Full-length human cDNAs encoding Pim-1 (MGC ID 3913552) or Pim-2 (IMAGE ID 5092935) were purchased from Invitrogen, Carlsbad, Calif. These cDNAs were used as templates in PCR reactions to produce full-length DNA clones of the PIMs. […] The phosphorylation of biotinylated-BAD (S112) peptide by full length recombinant Pim-1, Pim-2, or Pim-3 protein was detected with streptavidin:Allophycocyanin (APC) conjugate and a europium (Eu) labeled antibody directed against phosphorylated-BAD (S112). […]
pIC50: −log10 of the molar value.
pIC50 below 7 gives criterion not met; pIC50 at or above it gives criterion met.

- MOLECULE: "C[C@H]1CN(c2ccncc2Nc2ncc3ccc(-c4ccc(S(C)(=O)=O)cc4F)nn23)C[C@@H](N)[C@@H]1O"
  TARGET_ENTITY: "Pim-2 (Homo sapiens (Human), UniProt Q9P1W9)"
  CATEGORY_LABEL: "criterion met"
- MOLECULE: "O[C@@H]1CCCN(c2ccncc2Nc2ncc3ccc(-c4ccccc4Cl)nn23)C1"
  TARGET_ENTITY: "Pim-2 (Homo sapiens (Human), UniProt Q9P1W9)"
  CATEGORY_LABEL: "criterion not met"
- MOLECULE: "N[C@H]1CCCN(c2ccncc2Nc2ncc3ccc(-c4ccc(F)cc4F)nn23)C1"
  TARGET_ENTITY: "Pim-2 (Homo sapiens (Human), UniProt Q9P1W9)"
  CATEGORY_LABEL: "criterion met"
- MOLECULE: "N[C@H]1CCN(c2ccncc2Nc2ncc3ccc(-c4c(F)cccc4F)nn23)C1 [Example 13, bis(2,2,2-trifluoroacetate)]"
  TARGET_ENTITY: "Pim-2 (Homo sapiens (Human), UniProt Q9P1W9)"
  CATEGORY_LABEL: "criterion not met"
- MOLECULE: "O[C@@H]1CCCN(c2ccncc2Nc2ncc3ccc(-c4nccs4)nn23)C1"
  TARGET_ENTITY: "Pim-2 (Homo sapiens (Human), UniProt Q9P1W9)"
  CATEGORY_LABEL: "criterion not met"
- MOLECULE: "Nc1cc(-c2ccncc2Nc2ncc3ccc(-c4c(F)cccc4F)nn23)ccn1"
  TARGET_ENTITY: "Pim-2 (Homo sapiens (Human), UniProt Q9P1W9)"
  CATEGORY_LABEL: "criterion not met"
- MOLECULE: "O=c1ccc(-c2ccncc2Nc2ncc3ccc(-c4c(F)cccc4F)nn23)c[nH]1"
  TARGET_ENTITY: "Pim-2 (Homo sapiens (Human), UniProt Q9P1W9)"
  CATEGORY_LABEL: "criterion not met"
- MOLECULE: "N[C@H]1CCCN(c2ccncc2Nc2ncc3ccc(-c4ccccc4F)nn23)C1 [Example 15, bis(2,2,2-trifluoroacetate)]"
  TARGET_ENTITY: "Pim-2 (Homo sapiens (Human), UniProt Q9P1W9)"
  CATEGORY_LABEL: "criterion met"
- MOLECULE: "CN(C)c1ccncc1Nc1ncc2ccc(-c3c(F)cccc3F)nn12"
  TARGET_ENTITY: "Pim-2 (Homo sapiens (Human), UniProt Q9P1W9)"
  CATEGORY_LABEL: "criterion not met"
- MOLECULE: "C[C@H]1CN(c2ccncc2Nc2ncc3ccc(-c4nccs4)nn23)C[C@@H](N)[C@@H]1O"
  TARGET_ENTITY: "Pim-2 (Homo sapiens (Human), UniProt Q9P1W9)"
  CATEGORY_LABEL: "criterion met"
- MOLECULE: "C[C@H]1CN(c2ccncc2Nc2ncc3ccc(-c4c(F)cccc4F)nn23)C[C@@H](N)[C@@H]1O"
  TARGET_ENTITY: "Pim-2 (Homo sapiens (Human), UniProt Q9P1W9)"
  CATEGORY_LABEL: "criterion met"
- MOLECULE: "O[C@H]1CCCN(c2ccncc2Nc2ncc3ccc(-c4c(F)cccc4F)nn23)C1"
  TARGET_ENTITY: "Pim-2 (Homo sapiens (Human), UniProt Q9P1W9)"
  CATEGORY_LABEL: "criterion met"
- MOLECULE: "N[C@H]1CCCN(c2ccncc2Nc2ncc3ccc(-c4nccs4)nn23)C1"
  TARGET_ENTITY: "Pim-2 (Homo sapiens (Human), UniProt Q9P1W9)"
  CATEGORY_LABEL: "criterion met"
- MOLECULE: "Clc1ccccc1-c1ccc2cnc(Nc3cnccc3O[C@@H]3CCCNC3)n2n1 [Example 10, bis(2,2,2-trifluoroacetate)]"
  TARGET_ENTITY: "Pim-2 (Homo sapiens (Human), UniProt Q9P1W9)"
  CATEGORY_LABEL: "criterion not met"
- MOLECULE: "CS(=O)(=O)c1ccc(-c2ccc3cnc(Nc4cnccc4N4CCC[C@H](N)C4)n3n2)c(F)c1"
  TARGET_ENTITY: "Pim-2 (Homo sapiens (Human), UniProt Q9P1W9)"
  CATEGORY_LABEL: "criterion met"
- MOLECULE: "Clc1ccccc1-c1ccc2cnc(Nc3cnccc3O[C@H]3CCCNC3)n2n1 [Example 16, bis(2,2,2-trifluoroacetate)]"
  TARGET_ENTITY: "Pim-2 (Homo sapiens (Human), UniProt Q9P1W9)"
  CATEGORY_LABEL: "criterion not met"
- MOLECULE: "N[C@H]1CCCN(c2ccncc2Nc2ncc3ccc(-c4cccnc4F)nn23)C1"
  TARGET_ENTITY: "Pim-2 (Homo sapiens (Human), UniProt Q9P1W9)"
  CATEGORY_LABEL: "criterion met"
- MOLECULE: "Clc1ccccc1-c1ccc2cnc(Nc3cnccc3N3CCNCC3)n2n1"
  TARGET_ENTITY: "Pim-2 (Homo sapiens (Human), UniProt Q9P1W9)"
  CATEGORY_LABEL: "criterion not met"
- MOLECULE: "N[C@H]1CCCN(c2ccncc2Nc2ncc3ccc(-c4ccccc4Cl)nn23)C1"
  TARGET_ENTITY: "Pim-2 (Homo sapiens (Human), UniProt Q9P1W9)"
  CATEGORY_LABEL: "criterion met"
- MOLECULE: "N[C@H]1CCCN(c2ccncc2Nc2ncc3ccc(-c4ccc(Cl)cc4Cl)nn23)C1"
  TARGET_ENTITY: "Pim-2 (Homo sapiens (Human), UniProt Q9P1W9)"
  CATEGORY_LABEL: "criterion met"
- MOLECULE: "Nc1cncc(-c2ccncc2Nc2ncc3ccc(-c4c(F)cccc4F)nn23)c1"
  TARGET_ENTITY: "Pim-2 (Homo sapiens (Human), UniProt Q9P1W9)"
  CATEGORY_LABEL: "criterion not met"
